# tgt: Muscarinic acetylcholine receptor M1 (Homo sapiens)
# assay procedure: Cholinergic receptor muscarinic 1 (CHRM1) small molecule antagonists, cell-based qHTS assay (AID 1963588); also: nearly all actives have a fitted effect of over 40% in size
# condition info: CHRM1-CHO antagonist mode, calcium flux fluorescence; series mostly up to 61.5 µM
Results filed as inconclusive are left out. Active and inactive are the calls of the source. Calls follow the shape of the full dose curve.
Outcome codes: yes (active), no (inactive)

# molecule, class name
rows = [
    ("Cn1c(NCCN(CCO)CCCc2ccc([N+](=O)[O-])cc2)cc(=O)n(C)c1=O", "no"),
    ("C[n+]1c2cc(N)ccc2cc2ccc(N)cc21 (tested in a mixture with another compound)", "no"),
    ("C[C@H](CCC(=O)O)[C@H]1CC[C@H]2[C@@H]3C(=O)C[C@@H]4CC(=O)CC[C@]4(C)[C@H]3CC(=O)[C@]12C", "no"),
    ("CCC[Si](OC)(OC)OC", "no"),
    ("Clc1cccc(C(c2ccc3nc[nH]c3c2)n2ccnc2)c1 (stereo unspecified)", "no"),
    ("O=S(=O)(Oc1ccc(Cl)cc1)c1ccccc1", "yes"),
    ("CCC(C)O (stereo unspecified)", "no"),
    ("CC[N+](CC)(CC)CCOc1ccc(/C=C/c2ccccc2)cc1", "yes"),
    ("CCn1nc(C(=O)O)c(=O)c2cc3c(cc21)OCO3", "no"),
    ("O=C(O)COc1nn(Cc2ccccc2)c2ccccc12", "no"),
    ("CCCCCCCCCCOC(=O)c1ccccc1C(=O)OCCCCCCCC", "no"),
]
